# assay: Langmuir monolayer pressure-area isotherms
# Type: physicochemical, E. coli
# conditionLabel: E. coli polar lipid monolayer, 20 mN/m, pH 7.4, ~20 °C
Answer each item with its documented log Klip @ 20 mN/m, Measured.
Give bare numbers.

Here is how some compounds turned out for log Klip @ 20 mN/m, Measured.
- compound: "CC1(C)C2CC=C(CNCCC(=O)Nc3c(O)ccc(C(=O)O)c3O)C1C2 (stereo not shown)"
  log Klip @ 20 mN/m, Measured: 5.6
- compound: "CC1(C)C2CC=C(CN(CCC(=O)Nc3c(O)ccc(C(=O)O)c3O)CC3=CCC4CC3C4(C)C)C1C2"
  log Klip @ 20 mN/m, Measured: 6.7
- compound: "CCCCN(CCCC)CCC(=O)Nc1c(O)ccc(C(=O)O)c1O"
  log Klip @ 20 mN/m, Measured: 5.0
- compound: "CC12C[C@@]34C=CC(=O)[C@@](C)(CCC(=O)Nc5c(O)ccc(C(=O)O)c5O)C3[C@H](CC1C4)O2 (stereo partly shown)"
  log Klip @ 20 mN/m, Measured: 6.6
- compound: "O=C(CCN(Cc1ccc2c(c1)OCO2)Cc1ccc2c(c1)OCO2)Nc1c(O)ccc(C(=O)O)c1O"
  log Klip @ 20 mN/m, Measured: 6.1
- compound: "O=C(CCN(Cc1cccnc1)Cc1cccnc1)Nc1c(O)ccc(C(=O)O)c1O"
  log Klip @ 20 mN/m, Measured: 5.9

# ---- query compound ----
[Q] Dear colleague, I am looking for the recorded log Klip @ 20 mN/m, Measured of the following compound: Cn1ccnc1CN(CCC(=O)Nc1c(O)ccc(C(=O)O)c1O)Cc1nccn1C
[A] 5.9

====

# assay: Tensiometry at the air-water interface (Wilhelmy method)
# Format: physicochemical
# conditionLabel: air-water partitioning coefficient, tensiometry, buffer pH 7.4
Kindly state log KAW (tens.) for each of the entries shown.
One number for each entry.

- smilesData: "CCCCN(CCCC)CCC(=O)Nc1c(O)ccc(C(=O)O)c1O"
  log KAW (tens.): 4.1
- smilesData: "O=C(CCN(Cc1cccnc1)Cc1cccnc1)Nc1c(O)ccc(C(=O)O)c1O"
  log KAW (tens.): 4.2

Pending molecule:
[Q] GET /values?readout=log KAW (tens.)&item= Cn1ccnc1CN(CCC(=O)Nc1c(O)ccc(C(=O)O)c1O)Cc1nccn1C
[A] 4.2

====

# assay: Langmuir monolayer pressure-area isotherms
# Assay type: physicochemical, E. coli
# conditionLabel: area taken by the drug in the monolayer, from slopes of log(ΔArea) vs. surface pressure
assayEndpoint: Effective Molec. Area (ad) (Å^2)
Give bare numbers, in Å^2.

Previously resolved entries follow.
- molecule: "CC12C[C@@]34C=CC(=O)[C@@](C)(CCC(=O)Nc5c(O)ccc(C(=O)O)c5O)C3[C@H](CC1C4)O2 (stereo partly drawn) [PL, platensimycin]"
  assayEndpoint: "Effective Molec. Area (ad)"
  valueReported: 34
- molecule: "CCCCN(CCCC)CCC(=O)Nc1c(O)ccc(C(=O)O)c1O [QD-06]"
  assayEndpoint: "Effective Molec. Area (ad)"
  valueReported: 30

# context switch: different molecule, same Effective Molec. Area (ad)
[Q] Query: Effective Molec. Area (ad); subject: Cn1ccnc1CN(CCC(=O)Nc1c(O)ccc(C(=O)O)c1O)Cc1nccn1C [G262]
[A] 17

====

# assay: Tensiometry at the air-water interface (Wilhelmy method)
# Format: physicochemical
# conditionLabel: air-water partitioning coefficient, tensiometry, buffer pH 7.4
Provide the recorded log KAW (tens.) for the entries that follow.
One number for each entry.

- compound: "O=C(CCN(Cc1ccc2c(c1)OCO2)Cc1ccc2c(c1)OCO2)Nc1c(O)ccc(C(=O)O)c1O"
  valueReported: 4.5
- compound: "CC1(C)C2CC=C(CN(CCC(=O)Nc3c(O)ccc(C(=O)O)c3O)CC3=CCC4CC3C4(C)C)C1C2"
  valueReported: 6.1

Report log KAW (tens.) for every entry below.
1. CC1(C)C2CC=C(CNCCC(=O)Nc3c(O)ccc(C(=O)O)c3O)C1C2 (stereo not shown)
2. CC12C[C@@]34C=CC(=O)[C@@](C)(CCC(=O)Nc5c(O)ccc(C(=O)O)c5O)C3[C@H](CC1C4)O2 (stereo partly shown)

[A]
1: 5.0; 2: 4.6
